Just for reference, patent US10703733B2 is where these values come from.

# TARGET_SYSTEM: MCL-1/Bim interaction (recombinant human MCL-1 protein, residues 171-327; biotinylated human Bim peptide, residues 51-76) (Homo sapiens (Human))
# Sequence (Q07820 171-327): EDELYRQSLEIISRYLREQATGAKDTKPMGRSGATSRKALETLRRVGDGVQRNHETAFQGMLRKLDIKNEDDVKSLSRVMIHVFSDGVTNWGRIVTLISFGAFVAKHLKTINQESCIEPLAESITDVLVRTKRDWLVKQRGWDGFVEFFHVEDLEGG
# MEASUREMENT_DESCRIPTION: MCL-1/Bim Binding AlphaLISA Assay
# EXPERIMENTAL_CONTEXT: 0.0625 nM 6xHis-Mcl-1 (171-327), 0.0625 nM biotinylated-Bim peptide
pIC50: −log10 of the molar value.
OBSERVABLE: pIC50

Past entries and their recorded results:
{"columns": ["COMPOUND", "pIC50"],
 "data": [
  ["COc1nn(C)cc1C(=O)NS1(=O)=NC(=O)c2ccc3c(c2)N(C[C@@H]2CC[C@H]2[C@@H](OC)/C=C/C[C@H](C)C1)C[C@@]1(CCCc2cc(Cl)ccc21)CO3 (single isomer, unassigned) [Example 388]", 8.97],
  ["COCC1(NC(=O)N[S@@]2(=O)=NC(=O)c3ccc4c(c3)N(C[C@@H]3CC[C@H]3[C@@H](OC)/C=C/C[C@H](C)C2)C[C@@]2(CCCc3cc(Cl)ccc32)CO4)CC1 [Example 131]", 10.34],
  ["COc1nn(C)cc1C(=O)N[S@@]1(=O)=NC(=O)c2ccc3c(c2)N(C[C@@H]2CC[C@H]2[C@@H](OC)CC[C@H](OC)[C@H](C)C1)C[C@@]1(CCCc2cc(Cl)ccc21)CO3 [Example 299]", 10.41]
]}

A. COC[C@@H]1Cn2cc(C(=O)N[S@@]3(=O)=NC(=O)c4ccc5c(c4)N(C[C@@H]4CC[C@H]4[C@@H](OC)/C=C/C[C@H](C)C3)C[C@@]3(CCCc4cc(Cl)ccc43)CO5)cc2CO1 [Example 306]
B. CO[C@H]1/C=C/C[C@H](C)C[S@@](=O)(NC(=O)c2cc3n(c2)C[C@H](C)OC3)=NC(=O)c2ccc3c(c2)N(C[C@@H]2CC[C@H]21)C[C@@]1(CCCc2cc(Cl)ccc21)CO3 [Example 167]
Pick one: A or B . Which has the bigger pIC50 number? Which one? Tell me its label. A
(A: 10.24, B: 9.85)
